systemTested: Cytochrome P450 2C9 (Homo sapiens, UniProt P11712)
Sequence (P11712 whole entry): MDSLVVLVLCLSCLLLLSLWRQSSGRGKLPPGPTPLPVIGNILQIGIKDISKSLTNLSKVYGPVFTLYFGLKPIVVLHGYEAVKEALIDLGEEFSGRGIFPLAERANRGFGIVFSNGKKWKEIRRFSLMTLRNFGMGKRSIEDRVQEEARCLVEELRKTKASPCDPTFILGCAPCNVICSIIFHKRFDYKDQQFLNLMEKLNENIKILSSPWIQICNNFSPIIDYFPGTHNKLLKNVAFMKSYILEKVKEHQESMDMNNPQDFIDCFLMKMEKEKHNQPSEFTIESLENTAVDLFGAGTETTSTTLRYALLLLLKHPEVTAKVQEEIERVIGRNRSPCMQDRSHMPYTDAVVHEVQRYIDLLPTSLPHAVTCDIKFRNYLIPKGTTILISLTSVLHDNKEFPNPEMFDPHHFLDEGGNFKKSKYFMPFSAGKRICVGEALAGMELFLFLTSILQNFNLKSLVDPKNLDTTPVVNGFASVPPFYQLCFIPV
protocolSummary: In Vitro CYP Inhibition Assay
conditions: 37 °C
pIC50: −log10 of the molar value.
experimentalReadout: pIC50

IN: Quick check: pIC50 of C[C@](O)(COc1ccc(Cl)c(F)c1)C(=O)Nc1ccc(C#N)c(C(F)(F)F)c1 ?
OUT: < 4.70

Each recorded value in this set is attributed to BindingDB's records for patent US9278914.
